Hello, the source for this data is ChEMBL document CHEMBL3232847, in case you need it.

- method: Volume of distribution at steady state in Sprague-Dawley rat at 1 mg/kg, iv
- Assay type: ADME, organism-based
- Design: dose 1 mg/kg, route intravenous
- setup-conditions: in vivo, read-out: Vdss
measurement-type: Vd (L/kg)
Numbers only, in L/kg.

# input Need Vd, item `CC1(C)Oc2ncnc(N)c2N=C1c1ccc([C@H]2CC[C@H](CC(=O)O)CC2)cc1`
# output 1.65
